Reference for the values: the supplement of paper PMC4466140

Entries and their SPOT peptide array binding signal intensity values follow.
- Tgt: CaRvs167-3
- Test protocol: SPOT peptide array binding signal intensity (averaged, normalized) (arbitrary units (background-subtracted, floor 0; scale differs between SH3 domains)); higher = stronger binding of the SH3 domain to the peptide
Keep it simple and answer with nothing but the number.

Worked cases, answers included:
1) KRKRFNLLLPKPYLT :: 692
2) VTHRLRISIPGITGR :: 2060
3) WRPRIVPILPYITRL :: 56
4) PSRRDSLSIPRAVDA :: 1
5) NTMKKRPAPPSLPSL :: 1.25

Given "VQKRKLPLPGSIASA" , state its recorded SPOT peptide array binding signal intensity. 4.62

May I ask what SPOT peptide array binding signal intensity has been recorded for "MARRRLPDRPPNGIG" ? 25.5

Quick one: SPOT peptide array binding signal intensity for "EREKALPPIPFTTTL" ? 1
